Recorded values, source patent US20080220450A1.

biological target: DRB1*0405 (DR4w15); assay: binding to purified HLA
Observed property: pIC50
# reply with the number alone; pIC50 is -log10 of concentration in mol/L

I'd like to know its pIC50. The binder in question is GSISYPARYANAMAV [B. lentus 157]
5.17

What measured pIC50 goes with GTVAALNNSIGVLGV [BPN' Y217L .70] ?
6.78

What measured pIC50 goes with NGIEWAIANNMDVIN [BPN' Y217L .109] ?
7.43

Shifting focus to the binder that follows.
Item under review: SYPARYANAMAVGAT [B. lentus .160] . Reported pIC50?
5.87
